Entries and their measured shrunken log2 fold change follow.
# Test system: Escherichia coli TOP10
# Measurement Protocol: shrunken log2 fold change of peptide-encoding DNA abundance (4.5 h post-induction vs induction); higher = less antimicrobial activity (less host growth inhibition)
# Assay Setup: time post-induction: 4.5 h; library: site-saturation at positions 5, 18, 19, 20

{"Sequence String": "RRIRHRPPRLPRPRPRPPRAPRP", "Test Target": "Escherichia coli TOP10", "shrunken log2 fold change": 0.667}
{"Sequence String": "RRIRKRPPRLPRPRPRPLQKPRP", "Test Target": "Escherichia coli TOP10", "shrunken log2 fold change": -0.0368}
{"Sequence String": "RRIRPRPPRLPRPRPRPDNGPRP", "Test Target": "Escherichia coli TOP10", "shrunken log2 fold change": -0.332}
{"Sequence String": "RRIRMRPPRLPRPRPRPCRDPRP", "Test Target": "Escherichia coli TOP10", "shrunken log2 fold change": 0.244}
{"Sequence String": "RRIRARPPRLPRPRPRPDNEPRP", "Test Target": "Escherichia coli TOP10", "shrunken log2 fold change": 0.301}
{"Sequence String": "RRIRDRPPRLPRPRPRPLHKPRP", "Test Target": "Escherichia coli TOP10", "shrunken log2 fold change": 0.0824}
{"Sequence String": "RRIRRRPPRLPRPRPRPFQDPRP", "Test Target": "Escherichia coli TOP10", "shrunken log2 fold change": -0.15}
{"Sequence String": "RRIRWRPPRLPRPRPRPKYWPRP", "Test Target": "Escherichia coli TOP10", "shrunken log2 fold change": 0.0306}
{"Sequence String": "RRIRPRPPRLPRPRPRPAVNPRP", "Test Target": "Escherichia coli TOP10", "shrunken log2 fold change": -0.103}
{"Sequence String": "RRIRPRPPRLPRPRPRPRYCPRP", "Test Target": "Escherichia coli TOP10", "shrunken log2 fold change": -0.191}
{"Sequence String": "RRIRVRPPRLPRPRPRPWAFPRP", "Test Target": "Escherichia coli TOP10", "shrunken log2 fold change": -0.189}
{"Sequence String": "RRIRHRPPRLPRPRPRPYFQPRP", "Test Target": "Escherichia coli TOP10", "shrunken log2 fold change": -0.935}
{"Sequence String": "RRIRHRPPRLPRPRPRPAYEPRP", "Test Target": "Escherichia coli TOP10", "shrunken log2 fold change": 0.0981}
{"Sequence String": "RRIRMRPPRLPRPRPRPVGAPRP", "Test Target": "Escherichia coli TOP10", "shrunken log2 fold change": 1.34}
{"Sequence String": "RRIRMRPPRLPRPRPRPQVDPRP", "Test Target": "Escherichia coli TOP10", "shrunken log2 fold change": -0.00893}

---

# System: Escherichia coli TOP10;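 also: peptides expressed intracellularly from a pBAD plasmid library in pooled LB shake-flask culture, induced with 0.3% L-arabinose, DNA abundance read by NGS, three biological replicates, DESeq2 with apeglm shrinkage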
# Measurement Protocol: shrunken log2 fold change of peptide-encoding DNA abundance (4.5 h post-induction vs induction); higher = less antimicrobial activity (less host growth inhibition)
# Assay Setup: time post-induction: 4.5 h; library: site-saturation at positions 5, 18, 19, 20
Cut-off 0.008 on shrunken log2 fold change, inclusive. At or above means yes; below means no.

{"Sequence String": "RRIRYRPPRLPRPRPRPFNRPRP", "Cat": "no"}
{"Sequence String": "RRIRWRPPRLPRPRPRPRRMPRP", "Cat": "yes"}
{"Sequence String": "RRIRARPPRLPRPRPRPGACPRP", "Cat": "yes"}
{"Sequence String": "RRIRTRPPRLPRPRPRPLSGPRP", "Cat": "no"}
{"Sequence String": "RRIRPRPPRLPRPRPRPMNPPRP", "Cat": "yes"}
{"Sequence String": "RRIRLRPPRLPRPRPRPNEAPRP", "Cat": "yes"}
{"Sequence String": "RRIRIRPPRLPRPRPRPQWDPRP", "Cat": "yes"}
{"Sequence String": "RRIRNRPPRLPRPRPRPESDPRP", "Cat": "yes"}
